Experimental target: CGI-PDE (i.e., c-GMP-inhibited PDE) (Canis lupus familiaris, UniProt A0A8I3NYE0)
Construct: isoforms of canine left ventricle were separated by column ion exchange chromatography
Sequence (A0A8I3NYE0 1-1135): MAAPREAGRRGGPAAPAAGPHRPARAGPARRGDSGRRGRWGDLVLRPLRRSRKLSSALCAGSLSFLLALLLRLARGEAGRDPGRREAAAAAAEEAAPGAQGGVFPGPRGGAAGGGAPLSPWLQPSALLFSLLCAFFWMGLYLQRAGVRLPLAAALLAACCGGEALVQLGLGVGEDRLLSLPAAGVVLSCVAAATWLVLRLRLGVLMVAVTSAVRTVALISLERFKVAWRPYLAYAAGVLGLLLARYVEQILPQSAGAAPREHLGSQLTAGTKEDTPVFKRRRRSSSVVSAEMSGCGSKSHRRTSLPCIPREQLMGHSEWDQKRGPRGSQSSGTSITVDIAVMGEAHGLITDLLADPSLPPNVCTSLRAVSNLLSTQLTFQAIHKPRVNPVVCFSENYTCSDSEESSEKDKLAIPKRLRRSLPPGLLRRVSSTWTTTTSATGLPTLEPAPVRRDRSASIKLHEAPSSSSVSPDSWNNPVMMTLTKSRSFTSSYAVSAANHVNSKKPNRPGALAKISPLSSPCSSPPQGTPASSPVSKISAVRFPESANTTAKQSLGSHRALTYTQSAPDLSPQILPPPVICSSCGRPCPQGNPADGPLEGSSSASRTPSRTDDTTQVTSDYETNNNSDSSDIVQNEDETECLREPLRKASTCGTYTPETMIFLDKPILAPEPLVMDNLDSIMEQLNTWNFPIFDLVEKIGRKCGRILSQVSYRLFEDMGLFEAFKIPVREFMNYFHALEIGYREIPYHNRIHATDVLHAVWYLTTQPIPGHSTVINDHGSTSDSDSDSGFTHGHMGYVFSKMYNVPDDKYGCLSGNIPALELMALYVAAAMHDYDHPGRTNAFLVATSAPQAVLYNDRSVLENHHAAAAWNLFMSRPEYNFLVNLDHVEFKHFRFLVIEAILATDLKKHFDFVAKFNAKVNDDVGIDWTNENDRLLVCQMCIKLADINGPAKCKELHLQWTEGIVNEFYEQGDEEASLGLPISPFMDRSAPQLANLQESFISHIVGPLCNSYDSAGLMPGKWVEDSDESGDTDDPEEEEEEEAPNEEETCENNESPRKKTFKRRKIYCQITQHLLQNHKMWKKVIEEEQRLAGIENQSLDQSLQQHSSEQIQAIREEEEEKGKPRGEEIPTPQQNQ
Protocol text: Inhibition of cardiac phosphodiesterases, Fraction IV (CGI-PDE)
Stated conditions: canine left ventricle PDE Fraction IV
Measured parameter: IC50 (µM)
Lab book: enter the figure in µM, no units written.

Solved entries:
CC1SC(=O)NN=C1c1ccc2c(c1)C(c1ccccc1)C(=O)N2 (stereo not shown) [Example 4]; 3.2
CC1SC(=O)NN=C1c1ccc2c(c1)C(C)(C)C(=O)N2C(=O)Nc1ccccc1 (stereo not shown) [Example 2]; 15
CC1SC(=O)NN=C1c1ccc2c(c1)C1(CCCC1)C(=O)N2C(=O)c1ccc(N)cc1.Cl (stereo not shown) [Example 1, hydrochloride]; 0.87

From here, focus on the item given below.
Problem: Requested field: IC50. Item: CCOC(=O)CN1C(=O)C(C)(C)c2cc(C3=NNC(=O)SC3C)ccc21 (stereo not shown) [Example 3]
Solution: 6.7

Reference source for all entries: patent EP0381374A1
